Target of assay: UniProt P58681
Sequence (P58681 whole entry): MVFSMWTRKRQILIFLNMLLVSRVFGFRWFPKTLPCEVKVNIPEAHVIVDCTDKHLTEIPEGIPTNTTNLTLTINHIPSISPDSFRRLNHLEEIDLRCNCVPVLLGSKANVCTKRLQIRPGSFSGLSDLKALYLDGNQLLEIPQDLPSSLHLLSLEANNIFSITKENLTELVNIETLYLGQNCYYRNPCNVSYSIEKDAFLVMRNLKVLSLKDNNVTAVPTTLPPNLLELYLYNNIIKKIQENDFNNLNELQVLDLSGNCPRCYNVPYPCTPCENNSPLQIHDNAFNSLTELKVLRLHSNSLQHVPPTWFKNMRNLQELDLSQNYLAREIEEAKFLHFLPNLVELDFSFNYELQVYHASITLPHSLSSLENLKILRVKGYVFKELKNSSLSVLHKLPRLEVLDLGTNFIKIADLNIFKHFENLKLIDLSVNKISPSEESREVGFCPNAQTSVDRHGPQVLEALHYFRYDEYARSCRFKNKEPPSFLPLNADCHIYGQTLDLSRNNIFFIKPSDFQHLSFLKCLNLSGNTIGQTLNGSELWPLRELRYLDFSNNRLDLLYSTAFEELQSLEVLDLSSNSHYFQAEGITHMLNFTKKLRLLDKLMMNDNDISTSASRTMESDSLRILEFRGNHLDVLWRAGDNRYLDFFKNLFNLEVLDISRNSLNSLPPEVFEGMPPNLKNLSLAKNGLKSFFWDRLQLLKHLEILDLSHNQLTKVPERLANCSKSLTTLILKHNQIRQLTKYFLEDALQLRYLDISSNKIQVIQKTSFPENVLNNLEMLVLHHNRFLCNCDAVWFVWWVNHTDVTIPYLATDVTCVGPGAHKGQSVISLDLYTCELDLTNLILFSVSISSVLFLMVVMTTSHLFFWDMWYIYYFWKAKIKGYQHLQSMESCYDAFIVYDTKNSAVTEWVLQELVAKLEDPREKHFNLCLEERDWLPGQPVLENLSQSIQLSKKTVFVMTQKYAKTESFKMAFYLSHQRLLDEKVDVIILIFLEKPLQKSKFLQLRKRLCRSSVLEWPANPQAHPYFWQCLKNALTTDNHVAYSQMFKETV
Protocol notes: Agonist activity at TLR7 in Balb/c mouse splenocytes assessed as induction of IL-6 secretion in supernatant after 18 hrs
Measured EC50, listed per entry for reference.
In your response, the unit should come after the numeric value.

Cc1cc(OCCCP(=O)(O)O)ccc1CCc1cnc2c(N)nc3cc(CCC(=O)O)ccc3c2c1 = 310 nM
Cc1cc(OCCOCCOCCC(F)(F)P(=O)(O)O)ccc1CCc1cnc2c(N)nc3cc(CCC(=O)O)ccc3c2c1 = 1200 nM
COc1ccc(CCc2cnc3c(N)nc4cc(CCP(=O)(O)O)ccc4c3c2)c(C)c1 = 130 nM
Cc1ccc2c(c1)nc(N)c1ncc(CCc3ccc(OCCCP(=O)(O)O)cc3C)cc12 = 1100 nM
Cc1ccc2c(c1)nc(N)c1ncc(CCc3ccc(OCCOCCOCCC(F)(F)P(=O)(O)O)cc3C)cc12 = 810 nM
COc1ccc(CCc2cnc3c(N)nc4cc(/C=C(\F)P(=O)(O)O)ccc4c3c2)c(C)c1 = 570 nM
Cc1ccc2c(c1)nc(N)c1ncc(CCc3ccc(OCCOCCOCCP(=O)(O)O)cc3C)cc12 = 3600 nM
Cc1cc(OCCCC(F)(F)P(=O)(O)O)ccc1CCc1cnc2c(N)nc3cc(CCC(=O)O)ccc3c2c1 = 2400 nM

Which EC50 value belongs to Cc1cc(OCCOCCOCCP(=O)(O)O)ccc1CCc1cnc2c(N)nc3cc(CCC(=O)O)ccc3c2c1 ? 190 nM

What measured EC50 goes with COc1ccc(CCc2cnc3c(N)nc4cc(C(=O)C(F)(F)P(=O)(O)O)ccc4c3c2)c(C)c1 ? 3400 nM

Need EC50 of COc1ccc(CCc2cnc3c(N)nc4cc(C(=O)P(=O)(O)O)ccc4c3c2)c(C)c1 , thanks. 14000 nM

Fill in the blank: the reported EC50 of COc1ccc(CCc2cnc3c(N)nc4cc(/C=C/P(=O)(O)O)ccc4c3c2)c(C)c1 is ____. 2500 nM

Would you mind telling me what EC50 value was observed for Cc1ccc2c(c1)nc(N)c1ncc(CCc3ccc(OCCCC(F)(F)P(=O)(O)O)cc3C)cc12 ? 3200 nM

====

Target of assay: Toll-like receptor 7 (Mus musculus)
Protocol notes: Agonist activity at TLR7 in Balb/c mouse splenocytes assessed as induction of IL-6 secretion in supernatant after 18 hrs relative to resiquimod
Type: cell-based
Catalogue of %max values
API: value field is a number in %; no unit string.

The cases that follow already have their %max on record.
COc1ccc(CCc2cnc3c(N)nc4cc(C(=O)P(=O)(O)O)ccc4c3c2)c(C)c1 = 117
Cc1ccc2c(c1)nc(N)c1ncc(CCc3ccc(OCCOCCOCCC(F)(F)P(=O)(O)O)cc3C)cc12 = 100
Cc1cc(OCCOCCOCCP(=O)(O)O)ccc1CCc1cnc2c(N)nc3cc(CCC(=O)O)ccc3c2c1 = 140
Cc1cc(OCCCP(=O)(O)O)ccc1CCc1cnc2c(N)nc3cc(CCC(=O)O)ccc3c2c1 = 100
Cc1ccc2c(c1)nc(N)c1ncc(CCc3ccc(OCCOCCOCCP(=O)(O)O)cc3C)cc12 = 83
Cc1ccc2c(c1)nc(N)c1ncc(CCc3ccc(OCCCC(F)(F)P(=O)(O)O)cc3C)cc12 = 47

# lookup: %max of COc1ccc(CCc2cnc3c(N)nc4cc(C(=O)C(F)(F)P(=O)(O)O)ccc4c3c2)c(C)c1 100

// query %max value for entry Cc1cc(OCCCC(F)(F)P(=O)(O)O)ccc1CCc1cnc2c(N)nc3cc(CCC(=O)O)ccc3c2c1 74

Using the record for Cc1ccc2c(c1)nc(N)c1ncc(CCc3ccc(OCCCP(=O)(O)O)cc3C)cc12 , report its %max. 98

====

Protocol notes: Adsorption on alum in pH 6.5 histidine buffer assessed as compound adsorbed at 1 mg/ml incubated for 1 hr by LC-MS analysis relative to control
Assay type: physicochemical
Condition details: pH 6.5, 1 h
Recorded measurements of Activity, one per entry
Numeric answer only, unit % assumed.

Cc1ccc2c(c1)nc(N)c1ncc(CCc3ccc(OCCOCCOCCC(F)(F)P(=O)(O)O)cc3C)cc12 = 98
Cc1cc(OCCOCCOCCC(F)(F)P(=O)(O)O)ccc1CCc1cnc2c(N)nc3cc(CCC(=O)O)ccc3c2c1 = 97
Cc1cc(OCCOCCOCCP(=O)(O)O)ccc1CCc1cnc2c(N)nc3cc(CCC(=O)O)ccc3c2c1 = 97

The record that follows has no Activity shown yet.
What value of measured Activity is listed for Cc1cc(OCCCC(F)(F)P(=O)(O)O)ccc1CCc1cnc2c(N)nc3cc(CCC(=O)O)ccc3c2c1 ? 95

====

Target of assay: Toll-like receptor 7 (Homo sapiens, UniProt Q9NYK1)
Protocol notes: Agonist activity at human TLR7 expressed in HEK293 cells incubated for 6 hrs by luciferase reporter gene assay
Assay type: cell-based
Items are presented alongside their recorded pEC50.
Friendly reminder that pEC50 comes from taking -log10 of the concentration in mol/L.

Known pEC50 results, listed for orientation:
COc1ccc(CCc2cnc3c(N)nc4cc(C(=O)P(=O)(O)O)ccc4c3c2)c(C)c1 = 5.25
Cc1ccc2c(c1)nc(N)c1ncc(CCc3ccc(OCCCP(=O)(O)O)cc3C)cc12 = 6.64
Cc1cc(OCCOCCOCCP(=O)(O)O)ccc1CCc1cnc2c(N)nc3cc(CCC(=O)O)ccc3c2c1 = 6.46
Cc1ccc2c(c1)nc(N)c1ncc(CCc3ccc(OCCOCCOCCC(F)(F)P(=O)(O)O)cc3C)cc12 = 5.92
Cc1ccc2c(c1)nc(N)c1ncc(CCc3ccc(OCCOCCOCCP(=O)(O)O)cc3C)cc12 = 5.51

What measured pEC50 goes with Cc1cc(OCCCC(F)(F)P(=O)(O)O)ccc1CCc1cnc2c(N)nc3cc(CCC(=O)O)ccc3c2c1 ? 6.62

// query pEC50 value for entry COc1ccc(CCc2cnc3c(N)nc4cc(/C=C/P(=O)(O)O)ccc4c3c2)c(C)c1 6.82

I would be grateful if you could share the reported pEC50 for Cc1cc(OCCOCCOCCC(F)(F)P(=O)(O)O)ccc1CCc1cnc2c(N)nc3cc(CCC(=O)O)ccc3c2c1 . 7.41

====

Parameter EC50: see the listing below.
Target of assay: Toll-like receptor 7 (Homo sapiens, UniProt Q9NYK1)
Sequence (Q9NYK1 whole entry): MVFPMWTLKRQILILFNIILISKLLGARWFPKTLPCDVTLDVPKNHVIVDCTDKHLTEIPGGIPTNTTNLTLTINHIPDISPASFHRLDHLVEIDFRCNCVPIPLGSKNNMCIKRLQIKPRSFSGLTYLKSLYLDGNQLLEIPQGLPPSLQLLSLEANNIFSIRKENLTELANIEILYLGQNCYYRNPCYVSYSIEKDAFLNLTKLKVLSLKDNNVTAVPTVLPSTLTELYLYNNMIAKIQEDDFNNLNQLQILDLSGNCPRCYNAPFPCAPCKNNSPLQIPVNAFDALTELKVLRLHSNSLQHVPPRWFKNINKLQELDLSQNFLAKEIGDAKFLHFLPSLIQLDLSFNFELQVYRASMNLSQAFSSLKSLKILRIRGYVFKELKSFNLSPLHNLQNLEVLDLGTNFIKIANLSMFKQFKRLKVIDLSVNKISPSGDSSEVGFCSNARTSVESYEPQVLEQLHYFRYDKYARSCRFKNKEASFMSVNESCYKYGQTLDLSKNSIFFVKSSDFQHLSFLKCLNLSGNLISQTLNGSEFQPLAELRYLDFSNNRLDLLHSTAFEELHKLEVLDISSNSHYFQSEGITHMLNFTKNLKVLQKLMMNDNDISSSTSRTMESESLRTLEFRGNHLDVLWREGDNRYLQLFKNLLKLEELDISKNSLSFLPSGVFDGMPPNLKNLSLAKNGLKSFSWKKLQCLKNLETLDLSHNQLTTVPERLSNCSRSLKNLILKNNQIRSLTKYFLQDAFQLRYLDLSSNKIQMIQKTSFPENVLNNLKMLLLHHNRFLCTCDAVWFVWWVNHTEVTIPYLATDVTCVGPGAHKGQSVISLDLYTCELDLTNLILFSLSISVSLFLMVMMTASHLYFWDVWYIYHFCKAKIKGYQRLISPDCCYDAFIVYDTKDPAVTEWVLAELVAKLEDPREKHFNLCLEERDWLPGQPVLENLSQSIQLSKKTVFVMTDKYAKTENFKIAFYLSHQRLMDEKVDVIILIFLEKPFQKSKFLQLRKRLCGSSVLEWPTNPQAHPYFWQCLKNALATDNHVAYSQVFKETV
Protocol notes: Agonist activity at TLR7 in human PBMC assessed as induction of IL-6 secretion in supernatant after 18 hrs
Condition details: read-out: EC50
# output: bare number, implied unit µM

Example cases with answers are listed next.
Cc1ccc2c(c1)nc(N)c1ncc(CCc3ccc(OCCCP(=O)(O)O)cc3C)cc12 = 30
Cc1ccc2c(c1)nc(N)c1ncc(CCc3ccc(OCCOCCOCCC(F)(F)P(=O)(O)O)cc3C)cc12 = 0.98

From here, focus on the item given below.
Kindly state the measured EC50 obtained for Cc1cc(OCCOCCOCCC(F)(F)P(=O)(O)O)ccc1CCc1cnc2c(N)nc3cc(CCC(=O)O)ccc3c2c1 with Toll-like receptor 7 (Homo sapiens, UniProt Q9NYK1). 2.1

Origin of the recorded values: ChEMBL document CHEMBL3826928
